study.target: Vitamin D3 receptor (Homo sapiens) (UniProt P11473)
Sequence (P11473 whole entry, looked up): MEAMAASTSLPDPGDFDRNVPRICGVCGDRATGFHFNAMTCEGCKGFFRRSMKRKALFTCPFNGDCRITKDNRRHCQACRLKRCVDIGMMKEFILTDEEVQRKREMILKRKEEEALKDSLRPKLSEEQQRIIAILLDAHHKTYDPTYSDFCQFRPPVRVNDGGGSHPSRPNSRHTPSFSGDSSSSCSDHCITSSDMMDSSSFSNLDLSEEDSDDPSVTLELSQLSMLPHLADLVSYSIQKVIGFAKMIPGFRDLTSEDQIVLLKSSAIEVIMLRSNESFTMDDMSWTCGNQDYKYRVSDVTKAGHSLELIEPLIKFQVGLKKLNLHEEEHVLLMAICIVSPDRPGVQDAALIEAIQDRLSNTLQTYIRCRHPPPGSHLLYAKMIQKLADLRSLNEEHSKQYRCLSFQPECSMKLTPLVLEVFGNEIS
assay.summary: qHTS for Inhibitors of the vitamin D receptor (VDR): Hit Validation using a Beta-Lactamase Assay (AID 602202)
reported.conditions: VDR beta-lactamase reporter cells, FRET ratio, cells co-treated with VDR agonist LG190178; series mostly up to 46.1 µM
The other results are listed elsewhere or left out. The source made the active and inactive calls. Calls come from the whole dose curve; as a rule, active = well fitted inhibition curve with a large enough effect; inconclusive = small, poorly fitted or top-dose-only effect, or another doubt; inactive = no such curve, though single readings can be large or run the other way.
The categories you may choose from are T = active, F = inactive

Solved cases (5 shown):
[[record]]
molecule = "CCOc1ccc(N(Cc2ccccc2)C(=O)c2nc(S(C)(=O)=O)ncc2Cl)cc1"
qualitative_label = "T"

[[record]]
molecule = "Cc1cc(C)nc(S/C=C/C(=O)c2ccccc2)n1"
qualitative_label = "T"

[[record]]
molecule = "O=C(/C=C/c1ccc(Cl)c([N+](=O)[O-])c1)c1cccnc1"
qualitative_label = "F"

[[record]]
molecule = "CCCCS(=O)(=O)c1oc(-c2cccs2)nc1S(=O)(=O)c1ccccc1"
qualitative_label = "T"

[[record]]
molecule = "CN(C)N=Nc1ccc2nc[nH]c2c1"
qualitative_label = "F"


Outcome? COc1ccc(CS(=O)/C(Cl)=C(/Cl)C(=O)Nc2ccc(OC)nc2)cc1 (stereo unspecified)
T

Please state the recorded outcome for this molecule: COc1ccc(OCc2nnc3n2N=C(c2ccccc2)C(CC(=O)O)S3)cc1 (stereo unspecified)
F

So what was the verdict on C=CCOc1ccc(/C=C2/C(=O)ON=C2C)cc1OCC in this test?
F

How was O=C(/C=C/c1ccc(Cl)cc1Cl)c1cccnc1 classified in this test?
F

Hello, I am checking results. What call was entered for O=C(Nc1nc(-c2ccncc2)cs1)C1COc2ccccc2O1 (stereo unspecified) ?
F

Hey, what did the test say about C[C@@H](NC(=O)OC(C)(C)C)c1nnc(S(=O)(=O)Cc2ccccc2)o1 ?
T

Record request — test call for Cc1cccc(CS(=O)(=O)c2ncc(Cl)c(C(=O)Nc3ccc(F)cc3)n2)c1
T

Which outcome did this test record for the molecule CSc1nnc(NC(=O)c2nc(S(=O)(=O)Cc3ccc(C)cc3)ncc2Cl)s1 ?
T

What outcome does the record of this test show for c1ccc2c(C[n+]3csc4ccccc43)cccc2c1 ?
F

Recorded test call requested for CCOC(=O)c1sc(NC(=O)CSc2nc(C)cc(C(F)(F)F)n2)c(C#N)c1C
F

Assay result, entry Cc1cccc(Oc2c([N+](=O)[O-])c(=O)n(C)c3ccccc23)c1 — outcome?
F
